# target.or.system: 5-hydroxytryptamine receptor 2A (Homo sapiens) (UniProt P28223)
# Sequence (P28223 whole entry, looked up): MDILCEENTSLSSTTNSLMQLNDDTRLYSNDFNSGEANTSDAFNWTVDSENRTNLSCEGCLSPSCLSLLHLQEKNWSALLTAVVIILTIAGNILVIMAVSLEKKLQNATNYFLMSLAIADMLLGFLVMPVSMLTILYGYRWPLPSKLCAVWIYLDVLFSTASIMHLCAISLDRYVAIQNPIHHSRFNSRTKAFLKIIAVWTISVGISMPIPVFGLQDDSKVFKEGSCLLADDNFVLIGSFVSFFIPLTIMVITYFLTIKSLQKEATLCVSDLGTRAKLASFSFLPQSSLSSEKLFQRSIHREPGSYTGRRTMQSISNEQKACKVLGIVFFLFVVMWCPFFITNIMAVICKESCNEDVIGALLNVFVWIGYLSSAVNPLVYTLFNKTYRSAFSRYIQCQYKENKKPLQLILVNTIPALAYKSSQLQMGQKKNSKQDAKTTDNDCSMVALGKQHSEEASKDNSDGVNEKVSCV
# assay.protocol: 5-hydroxytryptamine receptor 2A (HTR2A) small molecule antagonists, cell-based qHTS assay (AID 1963586); also: nearly all actives have a fitted effect of over 45% in size
# experimental.setup: HTR2A-CHO cells, DOI-induced calcium flux, fluorescence; series mostly up to 61.5 µM
Records with an inconclusive call do not appear. Activity calls are given as the source filed them. Calls follow the shape of the full dose curve.
Possible outcomes: Y for active, N for inactive

[
  {
    "compound": "CC[N+](C)(CC)CCOC(=O)C(O)(c1ccccc1)C1CCCCC1 (configuration not stated)",
    "label": "N"
  },
  {
    "compound": "C=C1C[C@@]23CC[C@H]4[C@@](C)(CCC[C@@]4(C)C(=O)O[C@@H]4O[C@H](CO)[C@@H](O)[C@H](O)[C@H]4O)[C@@H]2CC[C@]1(O[C@@H]1O[C@H](CO)[C@@H](O)[C@H](O[C@@H]2O[C@H](CO)[C@@H](O)[C@H](O)[C@H]2O)[C@H]1O[C@@H]1O[C@H](CO)[C@@H](O)[C@H](O)[C@H]1O)C3",
    "label": "N"
  },
  {
    "compound": "CCN(CC)CCOc1ccc(Cc2ccccc2)cc1",
    "label": "N"
  },
  {
    "compound": "CCC1NC(=O)c2cc(S(N)(=O)=O)c(Cl)cc2N1 (configuration not stated)",
    "label": "N"
  },
  {
    "compound": "Cc1c(Cl)cccc1Nc1ccccc1C(=O)O",
    "label": "Y"
  },
  {
    "compound": "CC(=O)Oc1cc(C(C)C)c(OCCN(C)C)cc1C",
    "label": "N"
  },
  {
    "compound": "Cc1c(C)c2c(c(C)c1OC(=O)CCC(=O)OCCO)CC[C@@](C)(CCC[C@H](C)CCC[C@H](C)CCCC(C)C)O2",
    "label": "N"
  },
  {
    "compound": "CC(=O)Nc1ccc(C)cc1C",
    "label": "N"
  },
  {
    "compound": "O=C(O)c1cc(Cl)cc([N+](=O)[O-])c1Cl",
    "label": "N"
  },
  {
    "compound": "CC(C)=CCC/C(C)=C/CC/C(C)=C/C(=O)OCC(=O)[C@@]1(O)CC[C@H]2[C@@H]3CCC4=CC(=O)C=C[C@]4(C)[C@H]3[C@@H](O)C[C@@]21C",
    "label": "N"
  },
  {
    "compound": "CCN(CC)CC(=O)Nc1c(C)cccc1C(=O)OC",
    "label": "N"
  },
  {
    "compound": "CCc1ccc(O)c(OC)c1",
    "label": "N"
  },
  {
    "compound": "CCOC(=O)NNc1ccc(N(CC)CC(C)O)nn1 (configuration not stated)",
    "label": "N"
  },
  {
    "compound": "C1CC(COCC2CO2)CCC1COCC1CO1 (configuration not stated)",
    "label": "N"
  },
  {
    "compound": "COc1ccc(C(=O)c2ccc(OC)cc2O)c(O)c1",
    "label": "N"
  },
  {
    "compound": "CCCCNc1c(C(=O)OCC)c(C)nc2c1cnn2CC",
    "label": "N"
  },
  {
    "compound": "C=C(C)c1cccc(C(C)(C)N=C=O)c1",
    "label": "N"
  },
  {
    "compound": "Oc1ccc(C(O)CNCCCCCCNCC(O)c2ccc(O)c(O)c2)cc1O (configuration not stated)",
    "label": "N"
  },
  {
    "compound": "Nc1ccc(S(=O)(=O)O)cc1",
    "label": "N"
  },
  {
    "compound": "CC(=O)Nc1ccc(S(=O)(=O)Nc2cc(C)on2)cc1",
    "label": "N"
  },
  {
    "compound": "Cc1cnc(NS(=O)(=O)c2ccc(N)cc2)nc1",
    "label": "N"
  },
  {
    "compound": "C=C[Si](C)(C)O[Si](C)(C)C=C",
    "label": "N"
  },
  {
    "compound": "CN1CCCC(n2nc(Cc3ccc(Cl)cc3)c3ccccc3c2=O)CC1 (configuration not stated)",
    "label": "Y"
  },
  {
    "compound": "C=Cc1ccccc1C=C",
    "label": "N"
  },
  {
    "compound": "CC(C)=CCC/C(C)=C/CC/C(C)=C/CO",
    "label": "N"
  },
  {
    "compound": "COc1ccc(-c2coc3cc(O)ccc3c2=O)cc1",
    "label": "N"
  },
  {
    "compound": "CCCCCCC/C=C/C=O",
    "label": "N"
  },
  {
    "compound": "C[N+]1(C)CCCC(OC(=O)C(O)(c2ccccc2)c2ccccc2)C1 (configuration not stated)",
    "label": "N"
  },
  {
    "compound": "CCC=CC#N",
    "label": "N"
  },
  {
    "compound": "Nc1ccc(C(=O)OCC(O)CO)cc1 (configuration not stated)",
    "label": "N"
  },
  {
    "compound": "COCC(=O)Nc1c(I)c(C(=O)NCC(O)CO)c(I)c(C(=O)N(C)CC(O)CO)c1I (configuration not stated)",
    "label": "N"
  },
  {
    "compound": "CCCCCC(=O)OCC",
    "label": "N"
  },
  {
    "compound": "Nc1ncnc(Nc2ccccc2)n1",
    "label": "N"
  },
  {
    "compound": "CC(=O)Nc1ccn(C2COC(COC(=O)c3ccccc3)O2)c(=O)n1 (configuration not stated)",
    "label": "N"
  },
  {
    "compound": "NCC(=O)CCC(=O)O",
    "label": "N"
  },
  {
    "compound": "COc1ccccc1N1CCN(CCCNc2cc(=O)n(C)c(=O)n2C)CC1",
    "label": "N"
  },
  {
    "compound": "O=C(CCC1CCN(Cc2ccccc2)CC1)c1ccc2c(c1)NCCCC2",
    "label": "Y"
  },
  {
    "compound": "O=CCCc1ccccc1",
    "label": "N"
  },
  {
    "compound": "COc1ccc(OC)c(NC(=O)CC(C)=O)c1",
    "label": "N"
  },
  {
    "compound": "OCC(O)c1ccccc1 (configuration not stated)",
    "label": "N"
  },
  {
    "compound": "CC(C)(C)C(=O)OCOC(=O)[C@@H]1N2C(=O)[C@@H](NC(=O)[C@H](N)c3ccccc3)[C@H]2SC1(C)C",
    "label": "N"
  },
  {
    "compound": "CO[C@H]1C=CO[C@@]2(C)Oc3c(C)c(O)c4c(O)c(cc(O)c4c3C2=O)NC(=O)/C(C)=C\\C=C/[C@H](C)[C@H](O)[C@@H](C)[C@@H](O)[C@@H](C)[C@H](OC(C)=O)[C@@H]1C",
    "label": "N"
  },
  {
    "compound": "O=S1OCCO1",
    "label": "N"
  },
  {
    "compound": "CCCCOC(=O)C(C)CC (configuration not stated)",
    "label": "N"
  },
  {
    "compound": "CC1=C2[C@H](/C=C(\\C)C(=O)O)CC[C@@H](C)[C@H]2CC1",
    "label": "N"
  },
  {
    "compound": "CC(CO)(CO)C(=O)O",
    "label": "N"
  },
  {
    "compound": "O[C@@H](CNC[C@H](O)[C@H]1CCc2cc(F)ccc2O1)[C@@H]1CCc2cc(F)ccc2O1",
    "label": "Y"
  }
]

Where these numbers come from: PubChem BioAssay (Tox21)
